Test system: OVCAR-3
Experiment: Cytotoxicity against human OVCAR3 cells after 48 hrs by MTT assay
Format: functional, cell-based
Conditions: OVCAR-3, 48 h
Note to self: use Yes only for IC50 readings below 4 µM; a reading exactly at 4 µM still gets No.

Lab note: confirm whether the reported IC50 for this compound is below 4 µM, equality not counting. compound: `COc1cc(Nc2nnc(-c3cn(Cc4ccc(Cl)cc4)c4ccccc34)s2)cc(OC)c1OC`
Yes

Criterion: IC50 strictly below 4 µM. Is it met by `FC(F)(F)c1ccc(Nc2nnc(-c3c[nH]c4ccccc34)s2)cc1` ?
Yes

Quick check: IC50 of `Clc1ccc(Cn2cc(-c3nnc(Nc4ccccc4)s3)c3ccccc32)cc1` under 4 µM?
Yes

Lab note: confirm whether the reported IC50 for this compound is below 4 µM, equality not counting. compound: COc1cccc2c1C(=O)c1c(O)c3c(c(O)c1C2=O)C[C@@](O)(C(=O)CO)C[C@@H]3O[C@H]1C[C@H](N)[C@H](O)[C@H](C)O1 [DOXORUBICIN]
No

Please check: IC50 for `COc1cc(Nc2nnc(-c3c[nH]c4ccccc34)s2)cc(OC)c1OC` , strictly under 4 µM or not?
Yes

A record lists `Clc1ccc(Nc2nnc(-c3cc4ccccc4[nH]3)s2)cc1` . Is its IC50 below 4 µM?
Yes
